Target: Man(a1-2)Man(a1-6)[Man(a1-3)]Man(a1-6)[Man(a1-2)Man(a1-2)Man(a1-3)]Man
Assay: glycan array binding signal (z-score within array); higher = stronger binding
Conditions: glycan notation: IUPAC condensed, linker removed
This is one part of a sample in which the strongest signals are shown more often than they occur.
Decision: glycan array binding signal (z-score) compared against 0.7; not below it gives 1, below it gives -1.

Does Banana lectin (Musa acuminata) (protein) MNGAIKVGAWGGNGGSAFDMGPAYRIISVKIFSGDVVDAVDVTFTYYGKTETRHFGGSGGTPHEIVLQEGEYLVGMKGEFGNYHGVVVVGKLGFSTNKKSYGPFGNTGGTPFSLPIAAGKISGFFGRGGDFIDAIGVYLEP have a reported glycan array binding signal (z-score) of at least 0.7? 1

More entries:
Does GS13455A-bfa-343-25-343 (Bacteroides fragilis) (protein) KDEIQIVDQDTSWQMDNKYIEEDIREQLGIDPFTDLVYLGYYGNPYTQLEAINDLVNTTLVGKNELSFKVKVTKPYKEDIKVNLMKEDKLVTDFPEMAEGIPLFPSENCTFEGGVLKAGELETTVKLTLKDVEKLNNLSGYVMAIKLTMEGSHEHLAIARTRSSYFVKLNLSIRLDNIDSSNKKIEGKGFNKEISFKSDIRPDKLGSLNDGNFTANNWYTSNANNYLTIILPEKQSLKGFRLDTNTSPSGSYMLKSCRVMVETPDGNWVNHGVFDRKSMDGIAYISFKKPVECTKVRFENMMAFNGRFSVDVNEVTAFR have a reported glycan array binding signal (z-score) of at least 0.7? 1

Let us now turn to PpFlo1 (Pichia pastoris) (protein) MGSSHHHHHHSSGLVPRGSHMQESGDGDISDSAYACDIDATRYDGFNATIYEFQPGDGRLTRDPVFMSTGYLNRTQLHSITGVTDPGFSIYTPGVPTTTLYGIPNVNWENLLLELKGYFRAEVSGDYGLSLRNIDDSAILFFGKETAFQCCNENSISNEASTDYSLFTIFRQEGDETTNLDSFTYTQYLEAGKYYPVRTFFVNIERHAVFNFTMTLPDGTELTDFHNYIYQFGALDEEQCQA -1

Let us now turn to Mermaid3 (Stilbonema majum) (protein) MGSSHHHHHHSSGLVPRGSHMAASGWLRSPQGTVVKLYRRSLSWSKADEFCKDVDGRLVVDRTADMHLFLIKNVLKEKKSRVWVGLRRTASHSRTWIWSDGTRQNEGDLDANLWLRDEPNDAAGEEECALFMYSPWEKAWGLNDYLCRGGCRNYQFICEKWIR -1

Let us now turn to CVN (Nostoc ellipsosporum), P81180 (protein) LGKFSQTCYNSAIQGSVLTSTCERTNGGYNTSSIDLNSVIENVDGSLKWQPSNFIETCRNTQLAGSSELAAECKTRAQQFVSTKINLDDHIANIDGTLKYE 1

Let us now turn to Banana lectin (Musa acuminata) (protein) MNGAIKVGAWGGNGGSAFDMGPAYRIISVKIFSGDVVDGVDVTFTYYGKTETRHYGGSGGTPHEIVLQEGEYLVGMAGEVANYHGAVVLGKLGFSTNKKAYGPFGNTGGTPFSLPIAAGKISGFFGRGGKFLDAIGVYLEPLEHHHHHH 1

Let us now turn to SP8524D-bot-399-27-399 (Bacteroides ovatus) (protein) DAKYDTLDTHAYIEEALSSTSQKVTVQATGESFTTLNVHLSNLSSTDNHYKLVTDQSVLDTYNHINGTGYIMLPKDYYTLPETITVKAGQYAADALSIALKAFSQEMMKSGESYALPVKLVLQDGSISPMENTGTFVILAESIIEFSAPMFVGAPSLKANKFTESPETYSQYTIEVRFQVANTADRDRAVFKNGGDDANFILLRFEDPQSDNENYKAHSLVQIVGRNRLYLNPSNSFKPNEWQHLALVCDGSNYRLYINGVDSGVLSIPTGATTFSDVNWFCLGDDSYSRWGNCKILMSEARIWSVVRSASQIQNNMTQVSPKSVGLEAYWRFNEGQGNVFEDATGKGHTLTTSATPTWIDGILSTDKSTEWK -1

Let us now turn to Gal 3 (Homo sapiens), P17931 (protein) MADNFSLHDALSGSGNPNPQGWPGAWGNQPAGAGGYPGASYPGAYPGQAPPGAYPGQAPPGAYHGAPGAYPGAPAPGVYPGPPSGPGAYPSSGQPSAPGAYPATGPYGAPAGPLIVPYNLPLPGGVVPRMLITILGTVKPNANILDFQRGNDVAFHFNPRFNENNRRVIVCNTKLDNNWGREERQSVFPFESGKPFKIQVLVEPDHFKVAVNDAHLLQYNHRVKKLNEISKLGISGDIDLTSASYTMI -1

Let us now turn to HHA (Hippeastrum hybrid) (protein) MQQDCNLVLYDVDKPIWASNTGGLARDCHLNMQSDGNLVVYAPRNQVIWASNTQGENGNYVCILQKDRNVVIYGTARWATGTNIHGAGIVGVPGSAPQNTTAEMIKLVRKYLITK 1

Let us now turn to Actd5 (Actinidia), P84527 (protein) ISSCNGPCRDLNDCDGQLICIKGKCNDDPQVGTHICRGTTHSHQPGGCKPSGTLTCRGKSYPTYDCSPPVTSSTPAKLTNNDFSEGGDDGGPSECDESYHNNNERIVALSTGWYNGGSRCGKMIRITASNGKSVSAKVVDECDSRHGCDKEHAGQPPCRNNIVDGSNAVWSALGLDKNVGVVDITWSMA 1
